Species: Rattus norvegicus
Test protocol: Open TG-GATES - Regimen: Daily Repeat
Type: toxicity, organism-based, Sprague-Dawley
Parameters: regimen Daily Repeat, gender Male, age 6 weeks
Experimental parameters: in vivo, po, 100 mg/kg, […], tissue Plasma, route gavage, dose level Low, time 7 day
Below, each entry is listed with its recorded RALB.

[
  {
    "Molecule": "CCN1CCCC1CNC(=O)c1cc(S(N)(=O)=O)ccc1OC (centres undefined) [SULPIRIDE]",
    "Unit annotation": "g/dL",
    "RALB": 2.6
  },
  {
    "Molecule": "O=C(O)c1cccnc1 [NIACIN]",
    "Unit annotation": "g/dL",
    "RALB": 2.9
  },
  {
    "Molecule": "O=C(N[C@H](CO)[C@H](O)c1ccc([N+](=O)[O-])cc1)C(Cl)Cl [CHLORAMPHENICOL]",
    "Unit annotation": "g/dL",
    "RALB": 2.7
  },
  {
    "Molecule": "CC(C)(S)[C@@H](N)C(=O)O [PENICILLAMINE]",
    "Unit annotation": "g/dL",
    "RALB": 2.7
  }
]

====

Species on record: Rattus norvegicus
Test protocol: Open TG-GATES - Regimen: Single
Assay type: toxicity, organism-based, Sprague-Dawley
Set-up: regimen Single, gender Male, age 6 weeks
Experimental parameters: in vivo, po, 0 mg/kg, 24 h, tissue Blood, route gavage, dose level Control

[
  {
    "Compound": "CCSCC[C@H](N)C(=O)O",
    "Bas (%)": 0
  },
  {
    "Compound": "O=C(O)c1cccnc1",
    "Bas (%)": 0
  },
  {
    "Compound": "C[C@]12CCC(=O)C=C1CC[C@@H]1[C@@H]2CC[C@@]2(C)[C@H]1CC[C@]2(C)O",
    "Bas (%)": 0
  },
  {
    "Compound": "CCN1CCCC1CNC(=O)c1cc(S(N)(=O)=O)ccc1OC (stereo not given) [SULPIRIDE]",
    "Bas (%)": 0.4
  },
  {
    "Compound": "CC(C)C(=O)Nc1ccc([N+](=O)[O-])c(C(F)(F)F)c1 [FLUTAMIDE]",
    "Bas (%)": 0
  }
]

====

Species on record: Rattus norvegicus
Test protocol: Open TG-GATES - Regimen: Daily Repeat
Assay type: toxicity, organism-based, Sprague-Dawley
Design: regimen Daily Repeat, gender Male, age 6 weeks
Experimental parameters: in vivo, po, 0 mg/kg, […], tissue Blood, route gavage, dose level Control, time 7 day

[
  {
    "Compound": "CCN1CCCC1CNC(=O)c1cc(S(N)(=O)=O)ccc1OC (centres undefined) [SULPIRIDE]",
    "Hb [g/dL]": 13.9
  },
  {
    "Compound": "CC(C)(S)[C@@H](N)C(=O)O",
    "Hb [g/dL]": 14.2
  },
  {
    "Compound": "CCC(C)(C)C(=O)O[C@H]1C[C@@H](C)C=C2C=C[C@H](C)[C@H](CC[C@@H]3C[C@@H](O)CC(=O)O3)[C@H]21",
    "Hb [g/dL]": 12.8
  },
  {
    "Compound": "CCc1oc2ccccc2c1C(=O)c1cc(I)c(O)c(I)c1",
    "Hb [g/dL]": 14.2
  },
  {
    "Compound": "CC(=O)Oc1cc(C(C)C)c(OCCN(C)C)cc1C",
    "Hb [g/dL]": 13.6
  },
  {
    "Compound": "CN1C(=O)OC(C)(C)C1=O",
    "Hb [g/dL]": 13.8
  },
  {
    "Compound": "CC(C)C(=O)Nc1ccc([N+](=O)[O-])c(C(F)(F)F)c1 [FLUTAMIDE]",
    "Hb [g/dL]": 13.8
  },
  {
    "Compound": "C[C@](N)(Cc1ccc(O)c(O)c1)C(=O)O",
    "Hb [g/dL]": 13.5
  },
  {
    "Compound": "O=C(N[C@H](CO)[C@H](O)c1ccc([N+](=O)[O-])cc1)C(Cl)Cl",
    "Hb [g/dL]": 13.7
  }
]

====

Species: Rattus norvegicus
Test protocol: Open TG-GATES - Regimen: Daily Repeat
Format: toxicity, organism-based, Sprague-Dawley
Parameters: regimen Daily Repeat, gender Male, age 6 weeks
Experimental parameters: in vivo, po, 300 mg/kg, 72 h, tissue Blood, route gavage, dose level Middle, time 3 day
Below, each entry is listed with its recorded PT.
Observed property: PT

[
  {
    "Compound": "CCN1CCCC1CNC(=O)c1cc(S(N)(=O)=O)ccc1OC (centres undefined) [SULPIRIDE]",
    "Observed property": "PT",
    "Result": "13.1 s"
  },
  {
    "Compound": "O=C(O)c1cccnc1 [NIACIN]",
    "Observed property": "PT",
    "Result": "16 s"
  },
  {
    "Compound": "O=C(N[C@H](CO)[C@H](O)c1ccc([N+](=O)[O-])cc1)C(Cl)Cl [CHLORAMPHENICOL]",
    "Observed property": "PT",
    "Result": "14.4 s"
  },
  {
    "Compound": "CC(C)(S)[C@@H](N)C(=O)O [PENICILLAMINE]",
    "Observed property": "PT",
    "Result": "14.1 s"
  }
]

====

Organism: Rattus norvegicus
Test protocol: Open TG-GATES - Regimen: Single
Format: toxicity, organism-based, Sprague-Dawley
Parameters: regimen Single, gender Male, age 6 weeks
Experimental parameters: in vivo, po, 0 mg/kg, 24 h, tissue Plasma, route gavage, dose level Control

[
  {
    "Molecule": "CC(=N)S [THIOACETAMIDE]",
    "K, meq/L": 5.4
  },
  {
    "Molecule": "O=C(O)c1cccnc1",
    "K, meq/L": 4.3
  },
  {
    "Molecule": "CCSCC[C@H](N)C(=O)O",
    "K, meq/L": 3.8
  },
  {
    "Molecule": "CC(C)C(=O)Nc1ccc([N+](=O)[O-])c(C(F)(F)F)c1 [FLUTAMIDE]",
    "K, meq/L": 3.7
  },
  {
    "Molecule": "CCN1CCCC1CNC(=O)c1cc(S(N)(=O)=O)ccc1OC (stereo not given) [SULPIRIDE]",
    "K, meq/L": 4.2
  },
  {
    "Molecule": "Oc1ncnc2[nH]ncc12",
    "K, meq/L": 5.1
  },
  {
    "Molecule": "CC(C)(S)[C@@H](N)C(=O)O",
    "K, meq/L": 4
  },
  {
    "Molecule": "Nc1nc(N)c2nc(-c3ccccc3)c(N)nc2n1",
    "K, meq/L": 4.2
  },
  {
    "Molecule": "CCC(C)(C)C(=O)O[C@H]1C[C@@H](C)C=C2C=C[C@H](C)[C@H](CC[C@@H]3C[C@@H](O)CC(=O)O3)[C@H]21",
    "K, meq/L": 4.6
  },
  {
    "Molecule": "C[C@]12CCC(=O)C=C1CC[C@@H]1[C@@H]2CC[C@@]2(C)[C@H]1CC[C@]2(C)O",
    "K, meq/L": 4.3
  },
  {
    "Molecule": "C[C@](N)(Cc1ccc(O)c(O)c1)C(=O)O",
    "K, meq/L": 4.3
  },
  {
    "Molecule": "CC(=O)Oc1cc(C(C)C)c(OCCN(C)C)cc1C",
    "K, meq/L": 4.3
  },
  {
    "Molecule": "O=C(N[C@H](CO)[C@H](O)c1ccc([N+](=O)[O-])cc1)C(Cl)Cl",
    "K, meq/L": 4.1
  },
  {
    "Molecule": "CCc1oc2ccccc2c1C(=O)c1cc(I)c(O)c(I)c1",
    "K, meq/L": 4.8
  },
  {
    "Molecule": "CN1C(=O)OC(C)(C)C1=O",
    "K, meq/L": 4
  }
]

====

Below, each entry is listed with its recorded LIVER.
Species on record: Rattus norvegicus
Test protocol: Open TG-GATES - Regimen: Daily Repeat
Assay type: toxicity, organism-based, Sprague-Dawley
Design: regimen Daily Repeat, gender Male, age 6 weeks
Experimental parameters: in vivo, po, 0 mg/kg, 72 h, tissue Liver, route gavage, dose level Control, time 3 day

[
  {
    "Compound": "CC(=O)Oc1cc(C(C)C)c(OCCN(C)C)cc1C [MOXISYLYTE]",
    "LIVER": "10.3 g"
  },
  {
    "Compound": "CC(C)C(=O)Nc1ccc([N+](=O)[O-])c(C(F)(F)F)c1 [FLUTAMIDE]",
    "LIVER": "10.4 g"
  },
  {
    "Compound": "Oc1ncnc2[nH]ncc12 [ALLOPURINOL]",
    "LIVER": "12.2 g"
  },
  {
    "Compound": "O=C(N[C@H](CO)[C@H](O)c1ccc([N+](=O)[O-])cc1)C(Cl)Cl [CHLORAMPHENICOL]",
    "LIVER": "12.4 g"
  },
  {
    "Compound": "C#C[C@]1(O)CC[C@H]2[C@@H]3CCc4cc(O)ccc4[C@H]3CC[C@@]21C [ETHINYL ESTRADIOL]",
    "LIVER": "10.3 g"
  }
]
